Each recorded value in this set is attributed to patent US11884667B1.

# System: HL60 (leukemia)
# PROTOCOL DESCRIPTION: In vitro cytotoxic activity (MTT) assay, HL60
# Format: cell-based
# CONDITION: Homo sapiens, HL-60, 96 hours exposure, read-out: IC50, 50% inhibition of cell proliferation
MEASURED METRIC: IC50
Remember to follow the number with its unit.

Record O=C(O)c1cc2c(nc(Nc3cccc(Cl)c3)c3cnccc32)[nH]1 ; system HL60 (leukemia); IC50 = 2400 nM

----------
# TARGET OR TEST SYSTEM: recombinant human CK2 (RRββ-holoenzyme) (Homo sapiens)
# Construct: purchased Millipore
# Sequence (P68400 whole entry): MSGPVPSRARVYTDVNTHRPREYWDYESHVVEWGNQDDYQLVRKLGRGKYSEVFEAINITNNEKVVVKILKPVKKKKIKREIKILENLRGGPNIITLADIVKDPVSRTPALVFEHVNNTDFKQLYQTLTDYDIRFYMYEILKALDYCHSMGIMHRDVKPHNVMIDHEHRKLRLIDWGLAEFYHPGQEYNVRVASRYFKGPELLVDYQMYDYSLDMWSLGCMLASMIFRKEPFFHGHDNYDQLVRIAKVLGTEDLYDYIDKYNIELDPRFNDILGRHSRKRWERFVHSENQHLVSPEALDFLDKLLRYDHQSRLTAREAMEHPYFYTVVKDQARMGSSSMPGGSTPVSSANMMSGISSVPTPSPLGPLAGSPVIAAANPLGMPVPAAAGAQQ
# Sequence (P67870 whole entry partner): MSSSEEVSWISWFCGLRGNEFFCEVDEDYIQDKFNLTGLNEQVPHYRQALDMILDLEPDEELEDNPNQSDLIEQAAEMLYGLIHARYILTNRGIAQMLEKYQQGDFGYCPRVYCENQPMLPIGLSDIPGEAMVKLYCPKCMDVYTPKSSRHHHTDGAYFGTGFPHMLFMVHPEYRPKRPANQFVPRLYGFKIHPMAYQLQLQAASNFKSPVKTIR
# PROTOCOL DESCRIPTION: CK2 kinase assay ([γ-33P]ATP, filter plate)
# Type: biochemical
# CONDITION: final ATP 15 μM, 10 min at 30° C.; read-out: protein kinase CK2 IC50
MEASURED METRIC: pIC50
In simple prose, pIC50 is minus the logarithm base ten of a concentration in moles per litre.

Given item O=C(O)c1cc2c(nc(Nc3cccc(Cl)c3)c3cnccc32)[nH]1 , the value recorded as its pIC50 is 7.80
